Source: ChEMBL document CHEMBL2157909

Provide the reported log10(MIC) of each item.
- System: Escherichia coli
- TEST METHOD NOTES: Antibacterial activity against Escherichia coli ATCC 26032 after 24 hrs by two fold serial dilution method
- Format: functional
- CONDITIONS USED: ATCC 26032, 24 h
Parameter value (number): base-10 log of MIC in µg/mL.

input: Which log10(MIC) value is on record for C=CCN1[C@H](c2ccccc2)C/C(=N\OCc2ccccc2)[C@@H](C)[C@@H]1c1ccccc1 (relative stereo) ?
output: 1.40

input: // query log10(MIC) value for entry C=CCN1[C@H](c2ccc(C)cc2)C/C(=N\OCc2ccccc2)[C@@H](C)[C@@H]1c1ccc(C)cc1 (relative stereo)
output: 2.30

input: What log10(MIC) value was documented for this compound, C=CCN1[C@H](c2ccccc2)CC(=O)[C@@H](CC)[C@@H]1c1ccccc1 (relative stereo) ?
output: 1.70

input: Fill blank: measured log10(MIC) of the compound C=CCN1[C@@H](c2ccccc2)CC(=O)C[C@H]1c1ccccc1 is ____.
output: 2.30

input: Please report the recorded log10(MIC) for C=CCN1[C@@H](c2ccccc2)C/C(=N/OCc2ccccc2)C[C@H]1c1ccccc1 (relative stereo) .
output: 0.80

input: Requested read-out: log10(MIC). Entry: C=CCN1[C@H](c2ccccc2)C/C(=N\OCc2ccccc2)[C@@H](CC)[C@@H]1c1ccccc1 (relative stereo)
output: 0.80

input: # input compound: C=CCN1[C@H](c2ccccc2)[C@@H](C)/C(=N/OCc2ccccc2)[C@@H](C)[C@@H]1c1ccccc1 (relative stereo) ; wanted: its log10(MIC)
output: 2.00

input: Which log10(MIC) is listed for C=CCN1[C@H](c2ccc(OC)cc2)C/C(=N\OCc2ccccc2)[C@@H](C)[C@@H]1c1ccc(OC)cc1 (relative stereo) ?
output: 2.00

input: Please look up its log10(MIC): C=CCN1[C@H](c2ccc(Cl)cc2)C/C(=N\O)[C@@H](C)[C@@H]1c1ccc(Cl)cc1 (relative stereo)
output: 2.00

input: // returns reported log10(MIC) for input C=CCN1[C@H](c2ccc(OC)cc2)C/C(=N\O)[C@@H](C)[C@@H]1c1ccc(OC)cc1 (relative stereo)
output: 1.70

====

- Test system: Fusarium oxysporum
- TEST METHOD NOTES: Antifungal activity against Fusarium oxysporum ATCC 48112 after 72 to 96 hrs by two fold serial dilution method
- Type: functional
READOUT: MIC (µg/mL)
# unit: µg/mL | format: bare number

input: // returns reported MIC for input C=CCN1[C@H](c2ccc(OC)cc2)CC(=O)[C@@H](C)[C@@H]1c1ccc(OC)cc1 (relative stereo)
output: 25

input: Which MIC is reported for this compound? C=CCN1[C@@H](c2ccccc2)C(C)(C)/C(=N/OCc2ccccc2)C[C@H]1c1ccccc1 (relative stereo)
output: 12.5

input: Please look up its MIC: C=CCN1[C@H](c2ccc(OC)cc2)C/C(=N\OCc2ccccc2)[C@@H](C)[C@@H]1c1ccc(OC)cc1 (relative stereo)
output: 6.25

input: Give its MIC value. Item: C=CCN1[C@H](c2ccc(C)cc2)CC(=O)[C@@H](C)[C@@H]1c1ccc(C)cc1 (relative stereo)
output: 25

input: Quick check: MIC of C=CCN1[C@H](c2ccc(Cl)cc2)C/C(=N\OCc2ccccc2)[C@@H](C)[C@@H]1c1ccc(Cl)cc1 (relative stereo) ?
output: 25

input: Please report the recorded MIC for C=CCN1[C@H](c2ccc(C)cc2)C/C(=N\OCc2ccccc2)[C@@H](C)[C@@H]1c1ccc(C)cc1 (relative stereo) .
output: 100

input: // returns reported MIC for input C=CCN1[C@H](c2ccc(Cl)cc2)C/C(=N\O)[C@@H](C)[C@@H]1c1ccc(Cl)cc1 (relative stereo)
output: 12.5

input: What value of MIC has been recorded for this entry: C=CCN1[C@H](c2ccccc2)C/C(=N\O)[C@@H](C)[C@@H]1c1ccccc1 (relative stereo)
output: 100

input: Give the measured MIC of C[C@@H]1[C@H](O)[C@@H](C)/C=C/C=C/C=C/C=C/C=C/C=C/C=C/[C@H](O[C@@H]2O[C@H](C)[C@@H](O)[C@H](N)[C@@H]2O)C[C@@H]2O[C@](O)(C[C@@H](O)C[C@@H](O)[C@H](O)CC[C@@H](O)C[C@@H](O)CC(=O)O[C@H]1C)C[C@H](O)[C@H]2C(=O)O [AMPHOTERICIN B] .
output: 50

input: Given the compound C=CCN1[C@@H](c2ccccc2)C/C(=N/OCc2ccccc2)C[C@H]1c1ccccc1 (relative stereo) , what is its reported MIC?
output: 50

input: MIC lookup needed for C=CCN1[C@H](c2ccc(OC)cc2)C/C(=N\O)[C@@H](C)[C@@H]1c1ccc(OC)cc1 (relative stereo) , thanks.
output: 25

input: Fill in the blank: the reported MIC of C=CCN1[C@H](c2ccccc2)C/C(=N\O)[C@@H](CC)[C@@H]1c1ccccc1 (relative stereo) is ____.
output: 25

input: So what's the measured MIC for this one? C=CCN1[C@H](c2ccccc2)[C@@H](C)/C(=N/O)[C@@H](C)[C@@H]1c1ccccc1 (relative stereo)
output: 50

input: Record request: MIC value, item C=CCN1[C@H](c2ccccc2)[C@@H](C)C(=O)[C@@H](C)[C@@H]1c1ccccc1
output: 50

input: Data request, read-out MIC, for C=CCN1[C@H](c2ccccc2)CC(=O)[C@@H](CC)[C@@H]1c1ccccc1 (relative stereo)
output: 50

input: Quick check: MIC of C=CCN1[C@H](c2ccc(Cl)cc2)CC(=O)[C@@H](C)[C@@H]1c1ccc(Cl)cc1 (relative stereo) ?
output: 12.5

input: Requested read-out: MIC. Entry: C=CCN1[C@H](c2ccccc2)C/C(=N\OCc2ccccc2)[C@@H](CC)[C@@H]1c1ccccc1 (relative stereo)
output: 25

input: I am curious: what MIC value has been reported for C=CCN1[C@H](c2ccc(C)cc2)C/C(=N\O)[C@@H](C)[C@@H]1c1ccc(C)cc1 (relative stereo) ?
output: 25

input: Give the measured MIC of C=CCN1[C@@H](c2ccccc2)C(C)(C)/C(=N/O)C[C@H]1c1ccccc1 (relative stereo) .
output: 50

input: Item under review: C=CCN1[C@@H](c2ccccc2)C/C(=N/O)C[C@H]1c1ccccc1 (relative stereo) . Reported MIC?
output: 50

input: Returns the measured MIC for the input compound. Input: C=CCN1[C@@H](c2ccccc2)CC(=O)C[C@H]1c1ccccc1
output: 100
